# ASSAY_INFO: in vivo
# Parameters: species or system mice
# EXPERIMENTAL_SETUP: BALB/c, mouse, in vivo, po, 32 mg/kg, one shot, 32 mg/kg oral; mouse plasma, simulated; read-out: AUC0–48h

MOLECULE	U	AUC(0-t)
Cn1cnc(Cn2c(=O)[nH]/c(=N\c3cc4cn(C)nc4cc3Cl)n(Cc3cc(F)c(F)cc3F)c2=O)n1 [ensitrelvir, ensitrelvir fumaric acid]	µg·h/mL	510

* * *

# ASSAY_INFO: in vivo
# Parameters: species or system mice
# EXPERIMENTAL_SETUP: BALB/c, mouse, in vivo, po, 16 mg/kg, thrice daily for 2 d, 16 mg/kg oral; mouse plasma, simulated; read-out: AUC0–48h

MOLECULE	U	AUC(0-t)
Cn1cnc(Cn2c(=O)[nH]/c(=N\c3cc4cn(C)nc4cc3Cl)n(Cc3cc(F)c(F)cc3F)c2=O)n1	µg·h/mL	1390

* * *

# ASSAY_INFO: in vivo
# Design: species or system mice
# EXPERIMENTAL_SETUP: BALB/c, mouse, in vivo, po, 64 mg/kg, thrice daily for 2 d, 64 mg/kg oral; mouse plasma, simulated; read-out: AUC0–48h

MOLECULE	U	AUC(0-t)
Cn1cnc(Cn2c(=O)[nH]/c(=N\c3cc4cn(C)nc4cc3Cl)n(Cc3cc(F)c(F)cc3F)c2=O)n1	µg·h/mL	7650

* * *

# ASSAY_INFO: in vivo
# Parameters: species or system mice
# EXPERIMENTAL_SETUP: BALB/c, mouse, in vivo, po, 32 mg/kg, once daily for 2 d, 32 mg/kg oral; mouse plasma, simulated; read-out: AUC0–48h

COMPOUND	AUC(0-t) / µg·h/mL
Cn1cnc(Cn2c(=O)[nH]/c(=N\c3cc4cn(C)nc4cc3Cl)n(Cc3cc(F)c(F)cc3F)c2=O)n1 [ensitrelvir, ensitrelvir fumaric acid]	1020

* * *

# ASSAY_INFO: in vivo
# Parameters: species or system mice
# EXPERIMENTAL_SETUP: BALB/c, mouse, in vivo, po, 8 mg/kg, twice daily for 2 d, 8 mg/kg oral; mouse plasma, simulated; read-out: AUC0–48h
QUANTITY_NAME: AUC(0-t)

MOLECULE	QUANTITY_NAME	RESULT
Cn1cnc(Cn2c(=O)[nH]/c(=N\c3cc4cn(C)nc4cc3Cl)n(Cc3cc(F)c(F)cc3F)c2=O)n1	AUC(0-t)	446 µg·h/mL

* * *

# ASSAY_INFO: in vivo
# Design: species or system mice
# EXPERIMENTAL_SETUP: BALB/c, mouse, in vivo, po, 32 mg/kg, thrice daily for 2 d, 32 mg/kg oral; mouse plasma, simulated

MOLECULE	Cmax / µg/mL
Cn1cnc(Cn2c(=O)[nH]/c(=N\c3cc4cn(C)nc4cc3Cl)n(Cc3cc(F)c(F)cc3F)c2=O)n1	96

* * *

# ASSAY_INFO: in vivo
# Parameters: species or system mice
# EXPERIMENTAL_SETUP: BALB/c, mouse, in vivo, po, 16 mg/kg, twice daily for 2 d, 16 mg/kg oral; mouse plasma, simulated

MOLECULE	U	Cmax
Cn1cnc(Cn2c(=O)[nH]/c(=N\c3cc4cn(C)nc4cc3Cl)n(Cc3cc(F)c(F)cc3F)c2=O)n1 [ensitrelvir, ensitrelvir fumaric acid]	ng/mL	41300

Reference for the values: paper PMC10612060
